Reported Human Primary Hepatocyte Editing % 500 values for a set of molecules
System: PCSK9 gene
Assay: PCSK9 gRNA/SpCas9 editing in primary human hepatocytes (Tables 2, 4)
Assay type: cell-based
Details: 500 ng/RNA/mL; SpCas9 mRNA MS002 1:1 by weight
In the oligonucleotide strings, read from the 5' end, every base follows the letter of its sugar. An asterisk marks phosphorothioate; unmarked linkages are phosphodiester. Other units and linkages are bracketed, terminal groups are in braces. A string of capitals states the bases alone. m = 2'-O-methyl; r = 2'-OH (RNA)
Readout Kind: Human Primary Hepatocyte Editing % 500 (%)

1. GA199: PCSK9 gRNA; protospacer GAAGCGGGTCCCGTCCTCCT (SEQ ID NO: 193) (nucleic acid, sugars from the 5' end m3 r94 m3, linkages s3 o93 s3 (s phosphorothioate, o phosphodiester), T or U not given here) guide: GAAGCGGGUCCCGUCCUCCUGUUUUAGAGCUAGAAAUAGCAAGUUAAAAUAAGGCUAGUCCGUUAUCAACUUGAAAAAGUGGCACCGAGUCGGUGCUUUU | 6.89
2. GA233: PCSK9 gRNA; protospacer GCGGCTGTACCCACCCGCCA (SEQ ID NO: 227) (nucleic acid, sugars from the 5' end m3 r94 m3, linkages s3 o93 s3 (s phosphorothioate, o phosphodiester), T or U not given here) guide: GCGGCUGUACCCACCCGCCAGUUUUAGAGCUAGAAAUAGCAAGUUAAAAUAAGGCUAGUCCGUUAUCAACUUGAAAAAGUGGCACCGAGUCGGUGCUUUU | 5.39
3. GA185: PCSK9 gRNA; protospacer AGACATGCAGGATCTTGGTG (SEQ ID NO: 179) (nucleic acid) guide: mA*mG*mA*rCrArUrGrCrArGrGrArUrCrUrUrGrGrUrGrGrUrUrUrUrArGrArGrCrUrArGrArArArUrArGrCrArArGrUrUrArArArArUrArArGrGrCrUrArGrUrCrCrGrUrUrArUrCrArArCrUrUrGrArArArArArGrUrGrGrCrArCrCrGrArGrUrCrGrGrUrGrCrU*mU*mU*mU | 10.91
4. GA208: PCSK9 gRNA; protospacer CCAGCATACAGAGTGACCAC (SEQ ID NO: 202) (nucleic acid, sugars from the 5' end m3 r94 m3, linkages s3 o93 s3 (s phosphorothioate, o phosphodiester), T or U not given here) guide: CCAGCAUACAGAGUGACCACGUUUUAGAGCUAGAAAUAGCAAGUUAAAAUAAGGCUAGUCCGUUAUCAACUUGAAAAAGUGGCACCGAGUCGGUGCUUUU | 5.72
5. GA180: PCSK9 gRNA; protospacer GCGCACTGCCCGCCGCCTGC (SEQ ID NO: 174) (nucleic acid) guide: mG*mC*mG*rCrArCrUrGrCrCrCrGrCrCrGrCrCrUrGrCrGrUrUrUrUrArGrArGrCrUrArGrArArArUrArGrCrArArGrUrUrArArArArUrArArGrGrCrUrArGrUrCrCrGrUrUrArUrCrArArCrUrUrGrArArArArArGrUrGrGrCrArCrCrGrArGrUrCrGrGrUrGrCrU*mU*mU*mU | 2.22
6. GA172: PCSK9 gRNA; protospacer CAGTGCGCTCTGACTGCGAG (SEQ ID NO: 166) (nucleic acid, sugars from the 5' end m3 r94 m3, linkages s3 o93 s3 (s phosphorothioate, o phosphodiester), T or U not given here) guide: CAGUGCGCUCUGACUGCGAGGUUUUAGAGCUAGAAAUAGCAAGUUAAAAUAAGGCUAGUCCGUUAUCAACUUGAAAAAGUGGCACCGAGUCGGUGCUUUU | 3.52
